Each record here notes measured TGI.
Tested on: XF 498 CNS
Test Name: NCI tumour cell line growth inhibition, 48 h

# Molecule, Operator Symbol, TGI / µM
rows = [
    ("COC(=O)C[C@](O)(CCCC(C)(C)O)C(=O)O[C@@H]1C(OC)=C[C@]23CCCN2CCc2cc4c(cc2[C@H]13)OCO4", "=", 0.0391),
    ("COc1cc2c(cc1OC)C(CC1=C(c3ccccc3)CN3CCc4cc(OC)c(OC)cc4C3C1)NCC2 (configuration not stated)", "=", 25.9),
    ("Cc1ccc(S(=O)(=O)N(C=O)N=C2CCN(Cc3ccccc3)CC2)cc1", ">", 100),
    ("O=C1c2ccccc2C(=O)N1CCn1ccc(NC(c2ccccc2)(c2ccccc2)c2ccccc2)nc1=O", "=", 30.3),
    ("OC(CC1SCCCS1)c1ccccc1 (configuration not stated)", ">", 100),
    ("CC(C)(C)NNC(=O)CCn1[nH]c(=O)c(Cl)c(Cl)c1=O", ">", 100),
    ("O=[N+]([O-])c1cccc(C2=NN(c3ccccc3)C[N+](c3ccc(Br)cc3)=N2)c1", ">", 100),
]

* * *

System: EKVX NSCLC
Test Name: NCI tumour cell line growth inhibition, 48 h
Where a SMILES comes first, the peptide text is derived from it. The star is where a group is joined. Boc = CC(C)(C)OC(=O)*; Bn = c1ccc(C*)cc1

# Compound, TGI
records = [
    ("CN1C(=O)c2ccccc2OC12C=Cc1c(ccc3ccccc13)O2 (centres undefined)", "10.7 µM"),
    ("CN(CCSCCN(C)C(=O)OC(C)(C)C)C(=O)OC(C)(C)C", "> 100 µM"),
    ("CC(C)Cc1ccc(C(C)C(=O)N2CCN(/C=C/c3ccccc3)CC2)cc1 (centres undefined)", "35 µM"),
    ("COC(=O)C(CC(C)C)NC(=O)C(C)NC(=O)C(Cc1ccc(OCc2ccccc2)cc1)NC(=O)C(COCc1ccccc1)NC(=O)OC(C)(C)C (centres undefined) (Boc-S(Bn)Y(Bn)AL-OMe; configuration not given here)", "> 100 µM"),
    ("O=C(Nc1ccn(CCO)c(=O)n1)c1ccccc1", "> 100 µM"),
    ("CC(C)C1=CC23CCC4C(C)(C(=O)O)CCCC4(C)C2CC1C1C(=O)N(c2ccc(Cc4ccc(N5C(=O)C6C7CC8C9(C)CCCC(C)(C(=O)O)C9CCC8(C=C7C(C)C)C6C5=O)cc4)cc2)C(=O)C13 (centres undefined)", "24.9 µM"),
    ("COc1cc(-c2oc(=O)ccc2C#Cc2ccccn2)cc(OC)c1OC", "> 100 µM"),
    ("COc1cccc(CC(C)=C(c2ccc(OCCN(C)C)cc2)c2ccc(OCCN(C)C)cc2)c1", "8.52 µM"),
    ("O=C1/C(=C/c2ccc(Br)s2)NC(=S)N1c1ccccc1", "> 100 µM"),
    ("Nc1ccc2c(c1)C(=O)N1CCC[C@H]1C(=O)N2", "> 100 µM"),
    ("Oc1ccc(Nc2ncnc3c2sc2ncccc23)cc1", "> 100 µM"),
    ("COc1cccc(CCNC(=O)Cc2ccccc2CCO)c1", "> 100 µM"),
    ("CC(C)(C)NNC(=O)CCn1[nH]c(=O)c(Cl)c(Cl)c1=O", "> 100 µM"),
    ("CCOC1(OCC)C2C=CC1C(COS(=O)(=O)c1ccc(C)cc1)C2COS(=O)(=O)c1ccc(C)cc1 (centres undefined)", "> 100 µM"),
    ("CN(C)CCNC(=O)c1cccc2ccc(-c3ccc(O)cc3)nc12", "26.3 µM"),
    ("C/C=C/C(CC(O)(C(F)(F)F)C(F)(F)F)=N/NC(N)=S", "> 10 µM"),
    ("N#Cc1c(NC(=O)NCc2ccccc2)sc2c1CCCCC2", "> 100 µM"),
    ("COC(=O)C1=C(C(=O)OC)N(c2ccc(OC)cc2[N+](=O)[O-])C(c2ccc(C)cc2)=CC1c1ccc(OC)cc1OC (centres undefined)", "> 100 µM"),
    ("CC(C)C(CCl)NC(=O)c1cccc(C(=O)N[C@H](CCl)C(C)C)n1 (stereo in doubt)", "> 100 µM"),
    ("O=CCC1CCCCC1", "> 100 µM"),
    ("Nc1c(C(=O)O)nnc2ccc(Cl)cc12", "> 100 µM"),
    ("CC(=O)CCn1ncc(Cl)c(Cl)c1=O", "36.1 µM"),
    ("O=S(=O)(O)CCCc1cccc2ccccc12", "> 100 µM"),
    ("CC1=NN(c2nc(N)nc(/C(C#N)=C\\c3ccc([N+](=O)[O-])s3)n2)C(C)(C)C1", "4.28 µM"),
    ("O=c1oc2ccc3ccccc3c2cc1-c1nc2ccccc2s1", "> 100 µM"),
    ("CC1(C)COC(C2(C)C(=O)C=C(c3ccccc3)c3ccccc32)=N1 (centres undefined)", "> 100 µM"),
    ("CSC1=Nc2c(c(C)c(C)n2COC(CO)CO)C2=NC(=O)C(C)N12 (centres undefined)", "> 100 µM"),
    ("CC1(C)C(C#N)C1C1=C(N2CCOCC2)[C@]2(C)C(OC(=O)c3ccccc3)CC[C@@H]2C1 (some centres undefined)", "> 100 µM"),
    ("CCOC(=O)Nc1[nH]cc(-c2ccccc2)c1C#N", "> 100 µM"),
    ("CCN(CC)CCNc1ccc2nnn3c4ccc(OCCN(CC)CC)cc4c(=O)c1c23", "> 100 µM"),
    ("CC1(C)[C@@H](Cn2ccc(=O)[nH]c2=O)CC[C@@]1(C)CO", "> 100 µM"),
    ("CC1CC(OP(=O)(OCc2ccccc2)OCc2ccccc2)[C@@H](OCc2ccccc2)C(OCc2ccccc2)C1OCc1ccccc1 (some centres undefined)", "> 100 µM"),
    ("CO/N=C(\\C)c1ccc(Nc2nc3ccccc3c3occc23)cc1", "27.5 µM"),
    ("COC(=O)C(C(=O)c1ccccc1)C(C(=O)C(=O)Nc1ccc(OC)cc1OC)C(=O)C(=O)c1ccc(C)cc1 (centres undefined)", "> 100 µM"),
    ("N#Cc1c(N)nc(N2CCOCC2)c(C#N)c1-c1ccncc1", "> 100 µM"),
    ("CCN1CCN(C(=O)[C@@]2(C)CC[C@]3(C)CC[C@]4(C)C(=CC(=O)[C@@H]5[C@@]6(C)CC[C@H](OC7C[C@@H](O)[C@@H](O)C(C)O7)C(C)(C)[C@@H]6CC[C@]54C)[C@@H]3C2)CC1 (some centres undefined)", "10.4 µM"),
    ("Cc1ccc(-c2c(C#N)c(-c3ccc(C)cc3)n(NS(=O)(=O)c3ccccc3)c(=O)c2C#N)cc1", "> 100 µM"),
    ("Cc1[nH]c(=O)nc2nc3ccc(Cl)cc3c(NCCNCCO)c12", "23.8 µM"),
    ("CC1(C)/C(=N\\NC(N)=O)C2CCC1C2 (centres undefined)", "> 100 µM"),
]

* * *

Test system: MOLT-4 leukemia
Test Name: NCI tumour cell line growth inhibition, 48 h
Each record here notes measured TGI.
Value Type: TGI (µM)

# Compound, Value Type, Operator Symbol, Value
records = [
    ("CC1(C)N=C(N)N=C(N)N1c1ccc(CCCCc2ccc(Cl)cc2S(=O)(=O)F)c(Cl)c1", "TGI", "=", 15.5),
    ("CC1=C(C(=O)Nc2ccc(F)c(Cl)c2)C(c2ccccc2O)NC(=S)N1 (stereo unspecified)", "TGI", ">", 50),
    ("O=C(O)COc1ccc2c(=O)c3sc4c(=O)c5ccccc5c(=O)c4c3c(=O)c2c1", "TGI", "=", 52.6),
    ("CC(=O)CCn1c(=S)sc2ccccc21", "TGI", ">", 100),
    ("COC(=O)c1ccc2c(c1)nc(NC(=O)c1ccccc1)n2CCCc1ccccc1", "TGI", ">", 100),
    ("COC(=O)c1ccc(/C=C/c2cc(O)ccc2O)cc1", "TGI", "=", 0.927),
]

* * *

Test system: IGROV1 ovarian
Test Name: NCI tumour cell line growth inhibition, 48 h
Each record here notes measured TGI.

# Molecule, Measured Target, TGI
data = [
    ("Cc1cc(Cl)cc(OCCn2cc(F)cn2)c1-c1nc(N)nc2c1CN(C(=O)NCC(C)(F)F)C2", "IGROV1 ovarian", "> 100 µM"),
    ("Cc1cc(C)c2c(n1)sc1c(Nc3ccc(Cl)cc3)ncnc12", "IGROV1 ovarian", "> 100 µM"),
    ("CC(C)(C)NNC(=O)CCn1[nH]c(=O)c(Cl)c(Cl)c1=O", "IGROV1 ovarian", "> 100 µM"),
    ("Fc1ccc2c(c1)nc1n2C(c2c(Cl)cccc2Cl)SC1 (configuration not stated)", "IGROV1 ovarian", "27.1 µM"),
    ("O=C1CCC(Cl)=CC2CCCN12 (configuration not stated)", "IGROV1 ovarian", "> 100 µM"),
    ("O=C(Nc1ccc(Nc2ccncc2)cc1)c1ccc([N+](=O)[O-])cc1", "IGROV1 ovarian", "36.9 µM"),
    ("Cc1ccc(-c2c(C#N)c(-c3ccc(C)cc3)n(NS(=O)(=O)c3ccccc3)c(=O)c2C#N)cc1", "IGROV1 ovarian", "> 100 µM"),
    ("O=C(N/N=C(\\c1ccccc1)c1ccccn1)NC1CCCCC1", "IGROV1 ovarian", "> 100 µM"),
    ("COC(=O)C(C(=O)c1ccccc1)C(C(=O)C(=O)Nc1ccc(OC)cc1OC)C(=O)C(=O)c1ccc(C)cc1 (configuration not stated)", "IGROV1 ovarian", "> 100 µM"),
    ("CCN(CC)Cc1ccc(C(=S)Nc2ccc(Cl)cc2)s1", "IGROV1 ovarian", "24.1 µM"),
    ("COC(=O)C1=C(C(=O)OC)N(c2ccc(OC)cc2[N+](=O)[O-])C(c2ccc(C)cc2)=CC1c1ccc(OC)cc1OC (configuration not stated)", "IGROV1 ovarian", "56.8 µM"),
    ("CCOC(=O)C(C#N)C1=CC(=O)C(=O)c2ccc(OC)cc21 (configuration not stated)", "IGROV1 ovarian", "35.2 µM"),
    ("O=C(Nc1ccccc1)c1cc(S(=O)(=O)NC2=NC(c3ccccc3)c3cc(Cl)ccc3N2)c(SSc2cc(Cl)c(C(=O)Nc3ccccc3)cc2S(=O)(=O)NC2=NC(c3ccccc3)c3cc(Cl)ccc3N2)cc1Cl (configuration not stated)", "IGROV1 ovarian", "> 100 µM"),
    ("CCOC1(OCC)C2C=CC1C(COS(=O)(=O)c1ccc(C)cc1)C2COS(=O)(=O)c1ccc(C)cc1 (configuration not stated)", "IGROV1 ovarian", "> 100 µM"),
    ("O=C1c2ccccc2C(=O)c2c(NCC(O)CO)ccc(NCC(O)CO)c21 (configuration not stated)", "IGROV1 ovarian", "> 100 µM"),
    ("S=C(Nc1ccc(Cl)cc1)Nc1ccc(-c2nc3ccccc3s2)cc1", "IGROV1 ovarian", "37.9 µM"),
    ("O=C1c2cccc3c2C(=O)c2c(cccc21)OCCOCCOCCOCCO3", "IGROV1 ovarian", "> 100 µM"),
    ("CCN(CC)CCC(CNc1ccnc2cc(Cl)ccc12)c1ccc(Cl)cc1 (configuration not stated)", "IGROV1 ovarian", "7.33 µM"),
    ("Cc1c2n(c(=O)[nH]c1=O)C1OC(CO)C(O2)C1O (configuration not stated)", "IGROV1 ovarian", "> 100 µM"),
    ("O=c1[nH]nnc2c1sc1ncccc12", "IGROV1 ovarian", "> 100 µM"),
    ("N#Cc1c(NC(=O)NCc2ccccc2)sc2c1CCCCC2", "IGROV1 ovarian", "> 100 µM"),
    ("CCC(=O)CC(=O)CCC(=O)Nc1cc(C)ccc1C", "IGROV1 ovarian", "> 100 µM"),
]
